The reported numbers originate from patent US20230220008A1.

Target: T1, Recombinant human CD137 (R&D systems), biotinylated (human, UniProt Q07011 24-186, biotinylated with EZ-Link Sulfo-NHS-LC-LC-Biotin)
T1 construct: Bought protein; Captured on a streptavidin chip; also called human CD137 protein; 4-1BB
T1 sequence (Q07011 24-186 limits assumed): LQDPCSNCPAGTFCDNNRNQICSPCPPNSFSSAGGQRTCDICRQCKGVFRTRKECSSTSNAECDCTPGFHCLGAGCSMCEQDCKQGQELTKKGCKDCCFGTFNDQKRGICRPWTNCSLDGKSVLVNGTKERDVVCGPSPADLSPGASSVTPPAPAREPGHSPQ
Experiment: SPR (Biacore), biotinylated human CD137 captured on streptavidin chip, peptide as analyte, 25°C
Starred links: 1 amine or outer side, 2 acyl side, 3 side chain; linkers in the order of their positions; H or OH if unused. Positions of bridges follow the written chain, without caps; N, C: chain ends. Non-standard residues stand in square brackets, D forms with d. No end group written: not given here. BCN = bicyclo[6.1.0]non-4-yn-9-ylmethyl carbonate as carbamate, click handle; TATA = O=C(CC[*:1])N1CN(C(=O)CC[*:2])CN(C(=O)CC[*:3])C1; tBuAla = CC(C)(C)C[C@H](N)C(=O)O; Nle = CCCC[C@H](N)C(=O)O; PYA = propargyl-acid
Field: Kd. Provide a value for each of the binders that follow.
One number for each entry, in nM.

Please review the following examples before continuing.
binder	Kd [nM]
Ac-C[tBuAla]PK(PYA)[dA]PYCFADPY[Nle]CA (linker 1-8-15 via TATA, Bicyclic peptide monomer; also called Monomer 11A) [BCY8927]	12.3
Ac-ACIEEGK(BCN)YCFADPY[Nle]CA (linker 2-9-16 via TATA, Bicyclic peptide monomer; also called Monomer 6-BCN) [BCY8143]	112
XACIEEGQYCFADPYXCA ((PYA)-A-CiIEEGQYCiiFADPY(Nle)Ciii-A; Ci, Cii, Ciii cyclised on TATA, Bicyclic peptide monomer; also called Monomer 1A) [BCY7740]	88

# ---- query binder ----
Quick note, Kd for Ac-ACIEEGQYCK(BCN)ADPY[Nle]CA (linker 2-9-16 via TATA, Bicyclic peptide monomer; also called Monomer 7-BCN) [BCY8144] landed at 66.7
